# EXPERIMENTAL TARGET: hDHFR (Homo sapiens)
# Sequence (P00374 1-187): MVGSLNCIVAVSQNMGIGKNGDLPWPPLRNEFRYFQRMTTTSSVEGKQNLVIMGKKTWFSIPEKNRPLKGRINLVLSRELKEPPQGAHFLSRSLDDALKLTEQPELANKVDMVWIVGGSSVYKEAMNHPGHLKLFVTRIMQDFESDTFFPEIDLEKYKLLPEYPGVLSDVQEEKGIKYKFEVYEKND
# Assay type: biochemical
# CONDITION CONTEXT: Table 16; pIC50 = -log10 IC50; at least three replicates; read-out: hDHFR pIC50-DHFR primary assay (converted)
MEASUREMENT NAME: IC50 (nM)
Answer with a number only, understood to be in nM.

q: Give IC50 for this entry on hDHFR (Homo sapiens): C[C@@H]1CN(c2cnc(N)nc2N)CCN1c1cccc(C2=CCOCC2)c1 [Compound 194]
a: 33.1

q: Give IC50 for this entry on hDHFR (Homo sapiens): Nc1nc(N)c(N2CCN(c3ccccc3)CC2)c(CC2CC2)n1 [Compound 106]
a: 5890

q: Give IC50 for this entry on hDHFR (Homo sapiens): CC1CN(c2cccc(-c3ccccc3)c2)CCN1c1cnc(N)nc1N (stereo not drawn) [Compound 27]
a: 30200

q: Give IC50 for this entry on hDHFR (Homo sapiens): Nc1ncc(C2CCN(c3cnc(C(F)(F)F)nc3)CC2)c(N)n1 [Compound 187]
a: 6170

q: Give IC50 for this entry on hDHFR (Homo sapiens): Nc1ncc(N2CCN(c3cccc(N4CCOCC4)c3)CC2)c(N)n1 [Compound 25]
a: 14100

q: Give IC50 for this entry on hDHFR (Homo sapiens): Cc1ncc(-c2cccc(C3CCN(c4cnc(N)nc4N)CC3)c2)cn1 [Compound 113]
a: 372

q: Give IC50 for this entry on hDHFR (Homo sapiens): COc1ncc(-c2ccccc2N2CCN(c3cnc(N)nc3N)CC2)cn1 [Compound 157]
a: 5010

q: Give IC50 for this entry on hDHFR (Homo sapiens): Nc1ncc(N2CCN(c3ccccc3C3=CCOCC3)CC2)c(N)n1 [Compound 193]
a: 871

q: Give IC50 for this entry on hDHFR (Homo sapiens): COc1ncc(-c2cc(N3CCN(c4cnc(N)nc4N)CC3)ccn2)cn1 [Compound 163]
a: 155

q: Give IC50 for this entry on hDHFR (Homo sapiens): N#Cc1ncc(-c2cccc(N3CCN(c4cnc(N)nc4N)CC3)c2)cn1 [Compound 168]
a: 447

q: Give IC50 for this entry on hDHFR (Homo sapiens): CC1CN(c2cnc(N)nc2N)CCN1c1cccc(-c2ccccc2)c1 (stereo not drawn) [Compound 26]
a: 30.2

q: Give IC50 for this entry on hDHFR (Homo sapiens): CNc1ncc(-c2cccc(N3CCN(c4cnc(N)nc4N)CC3)c2)cn1 [Compound 97]
a: 741

q: Give IC50 for this entry on hDHFR (Homo sapiens): CCc1nc(N)nc(N)c1N1CCN(c2ccncc2)CC1 [Compound 36]
a: 30200

q: Give IC50 for this entry on hDHFR (Homo sapiens): Nc1ncc(N2CCN(c3ccnc(-c4ccccc4)c3)CC2)c(N)n1 [Compound 166]
a: 107

q: Give IC50 for this entry on hDHFR (Homo sapiens): COc1ncc(-c2cccc(N3CCN(c4cnc(N)nc4N)CC3)c2)cn1 [Compound 78]
a: 1200

q: Give IC50 for this entry on hDHFR (Homo sapiens): COc1ncc(-c2ccnc(N3CCN(c4cnc(N)nc4N)CC3)c2)cn1 [Compound 165]
a: 355

q: Give IC50 for this entry on hDHFR (Homo sapiens): Nc1ncc(N2CCN(c3ccccc3C3CCOCC3)CC2)c(N)n1 [Compound 175]
a: 13200

q: Give IC50 for this entry on hDHFR (Homo sapiens): CCCc1nc(N)nc(N)c1N1CCN(c2ncc(C)cn2)CC1 [Compound 59]
a: 8130

q: Give IC50 for this entry on hDHFR (Homo sapiens): CN(C)c1ncc(-c2cccc(N3CCN(c4cnc(N)nc4N)CC3)c2)cn1 [Compound 96]
a: 1150

q: Give IC50 for this entry on hDHFR (Homo sapiens): C[C@H]1CN(c2cnc(N)nc2N)CCN1c1cccc(C2=CCOCC2)c1 [Compound 192]
a: 479

q: Give IC50 for this entry on hDHFR (Homo sapiens): CCc1nc(N)nc(N)c1N1CCN(c2ccc(C)cn2)CC1 [Compound 45]
a: 794
